Hey, just so you know, these numbers are from paper PMC12126525.

# tgt: UniProtKB P11021
# testMethodNotes: Global kinetic fit (MCMC) of four NMR data sets (E1+E2, E1 only, E2 only, no recycling): functional cycle kinetic parameters
# Type: biochemical
# Design: His6 (N, cleaved yes); made in house; host or cells: E. coli BL21-(DE3)-Lemo, pET28a vector
# experimentalSetup: Supplementary Fig 10a, time 59 min
quantityName: species (µM)

• CC(=O)C(=O)O [Pyruvate] = 9455

[a] O=P(O)(O)O[C@H]1O[C@H](CO)[C@@H](O)[C@H](O)[C@H]1O
[b] Nc1ncnc2c1ncn2[C@@H]1O[C@H](COP(=O)(O)OP(=O)(O)OP(=O)(O)O)[C@@H](O)[C@H]1O
[c] C=C(OP(=O)(O)O)C(=O)O
[d] O=P(O)(O)O
## Task Sort the 4 compounds by species; largest first, smallest last. # list labels per requested ordering
## Result c, a, b, d
(c: 16013 µM, a: 8987 µM, b: 5024 µM, d: 25 µM)

---

# tgt: BiP NBD (Homo sapiens, UniProt P11021)
# Sequence (P11021 19-406): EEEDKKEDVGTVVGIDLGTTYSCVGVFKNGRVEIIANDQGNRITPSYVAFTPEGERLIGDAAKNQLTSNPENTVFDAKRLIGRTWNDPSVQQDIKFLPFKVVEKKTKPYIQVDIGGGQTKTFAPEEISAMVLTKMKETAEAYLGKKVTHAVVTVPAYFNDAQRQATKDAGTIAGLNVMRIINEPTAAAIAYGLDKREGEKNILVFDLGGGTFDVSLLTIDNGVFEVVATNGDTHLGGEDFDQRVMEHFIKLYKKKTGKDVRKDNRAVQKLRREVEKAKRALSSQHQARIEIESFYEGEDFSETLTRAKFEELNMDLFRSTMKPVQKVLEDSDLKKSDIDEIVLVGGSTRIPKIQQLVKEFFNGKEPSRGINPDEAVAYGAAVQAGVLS
# testMethodNotes: Global kinetic fit (MCMC) of four NMR data sets (E1+E2, E1 only, E2 only, no recycling): functional cycle kinetic parameters
# Type: biochemical
# Parameters: His6 (N, cleaved yes); made in house; host or cells: E. coli BL21-(DE3)-Lemo, pET28a vector
# experimentalSetup: Supplementary Fig 10a, time 11 min
quantityName: species (µM)

Sample records with species:
* Nc1ncnc2c1ncn2[C@@H]1O[C@H](COP(=O)(O)OP(=O)(O)OP(=O)(O)O)[C@@H](O)[C@H]1O | 4934
* CC(=O)C(=O)O [Pyruvate] | 1872

[1] O=P(O)(O)O
[2] O=P(O)(O)O[C@H]1O[C@H](CO)[C@@H](O)[C@H](O)[C@H]1O
## Task Of 1 versus 2 , which is the one with smaller reported species? State the label of the item chosen.
## Result 1
(1: 25 µM, 2: 2085 µM)

---

# tgt: BiP NBD (Homo sapiens)
# testMethodNotes: Global kinetic fit (MCMC) of four NMR data sets (E1+E2, E1 only, E2 only, no recycling): functional cycle kinetic parameters
# Format: biochemical
# Set-up: His6 (N, cleaved yes); made in house; host or cells: E. coli BL21-(DE3)-Lemo, pET28a vector
# experimentalSetup: Supplementary Fig 10a, time 47 min
quantityName: species (µM)

• O=P(O)(O)O[C@H]1O[C@H](CO)[C@@H](O)[C@H](O)[C@H]1O [glucose-1-p] = 7245

[I] CC(=O)C(=O)O [Pyruvate]
[II] C=C(OP(=O)(O)O)C(=O)O [PEP]
## Task Return label of the item with the larger species. Candidates: I , II . Please identify the chosen entry by its label.
## Result II
(II: 17755 µM, I: 7775 µM)
